- assay system: EGFR[L858R/T790M] (Homo sapiens (Human), UniProt P00533, L858R/T790M)
- Sequence (P00533 25-1210 T790M/L858R): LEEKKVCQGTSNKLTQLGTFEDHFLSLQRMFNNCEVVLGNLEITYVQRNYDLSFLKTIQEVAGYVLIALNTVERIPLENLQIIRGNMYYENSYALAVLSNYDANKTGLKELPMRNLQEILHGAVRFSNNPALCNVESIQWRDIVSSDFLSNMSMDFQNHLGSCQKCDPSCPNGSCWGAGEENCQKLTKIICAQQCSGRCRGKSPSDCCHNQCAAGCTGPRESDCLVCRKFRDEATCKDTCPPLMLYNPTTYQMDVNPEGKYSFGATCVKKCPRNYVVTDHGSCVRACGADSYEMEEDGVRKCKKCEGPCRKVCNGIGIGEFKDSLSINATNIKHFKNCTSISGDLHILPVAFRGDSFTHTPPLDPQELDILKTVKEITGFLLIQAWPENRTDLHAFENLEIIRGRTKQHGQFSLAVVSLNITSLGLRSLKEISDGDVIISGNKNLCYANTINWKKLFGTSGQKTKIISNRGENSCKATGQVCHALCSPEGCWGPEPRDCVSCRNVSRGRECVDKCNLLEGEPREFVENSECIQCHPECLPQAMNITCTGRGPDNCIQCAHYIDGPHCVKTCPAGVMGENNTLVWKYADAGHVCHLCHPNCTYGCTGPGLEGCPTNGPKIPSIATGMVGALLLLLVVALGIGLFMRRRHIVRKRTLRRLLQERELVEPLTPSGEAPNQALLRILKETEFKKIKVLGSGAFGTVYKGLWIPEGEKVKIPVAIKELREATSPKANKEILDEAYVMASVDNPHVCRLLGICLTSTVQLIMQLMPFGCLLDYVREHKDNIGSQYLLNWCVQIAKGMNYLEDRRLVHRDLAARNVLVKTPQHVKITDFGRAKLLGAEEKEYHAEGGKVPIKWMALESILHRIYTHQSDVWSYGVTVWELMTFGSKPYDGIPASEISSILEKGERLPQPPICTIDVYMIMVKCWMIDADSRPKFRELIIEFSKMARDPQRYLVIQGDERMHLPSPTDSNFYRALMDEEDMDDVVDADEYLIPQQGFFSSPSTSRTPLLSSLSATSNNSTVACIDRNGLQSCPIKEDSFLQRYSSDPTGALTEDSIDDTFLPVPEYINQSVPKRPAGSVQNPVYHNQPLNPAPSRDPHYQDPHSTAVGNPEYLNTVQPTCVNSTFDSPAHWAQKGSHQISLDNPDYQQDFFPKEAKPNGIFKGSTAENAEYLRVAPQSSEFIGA
- protocol description: Kinase inhibition assay (HTRF Kinase TK), EGFR[L858R/T790M]
Label key: True means IC50 under 0.6 nM; False means IC50 of 0.6 nM or more.

// known answers, use as guide
> print(dat)
                                   molecule  answer.label
1  C=CC(=O)Nc1cc(Nc2nccc(-c3cc(CN(C)C)n(-c4ccccc4)n3)n2)c(OC)cc1N1CCOCC1 [Compound T-7]         False
2  C=CC(=O)Nc1cc(Nc2ncc(F)c(-n3cc(CN(C)C)c(-c4ccccc4)n3)n2)c(OC)nc1N1CCOCC1 [Compound T-2]          True
3  C=CC(=O)Nc1cc(Nc2nccc(-n3cc(CN(C)C)c(-c4ccccc4)n3)n2)c(OC)nc1N1CCOCC1 [Compound T-1]          True

Now for a further molecule.
A record lists C=CC(=O)Nc1cc(Nc2nccc(-n3cc(CN(C)C)c(-c4ccccc4)n3)n2)c(OC(C)C)nc1N1CCOCC1 [Compound T-4] . Is its IC50 below 0.6 nM?
False
